Experiment: Pharmacokinetics in MDA-MB-231 tumor tissues of SCID mice
Type: in vivo
Settings: SCID, mouse, in vivo, po, 30 mg/kg
measurement.name: Cmax (µM)
Dear colleague, please return just the value in µM, with no unit written.

## Task Find the measured Cmax of CN[C@@H](C)C(=O)N[C@H]1CN(C(=O)CC(C)C)CC[C@H]2CC[C@@H](C(=O)NC(c3ccccc3)c3ccccc3)N2C1=O [compound 2] and report it.
## Result 3.9

----------
Assay: Pharmacokinetics in plasma of SCID mice bearing MDA-MB-231 tumors
Details: mouse, in vivo, po, 30 mg/kg
measurement.name: Cmax (nM)
Dear colleague, please return just the value in nM, with no unit written.

## Task Find the measured Cmax of CN[C@@H](C)C(=O)N[C@H]1CN(C(=O)CC(C)C)CC[C@H]2CC[C@@H](C(=O)NC(c3ccccc3)c3ccccc3)N2C1=O [compound 2] and report it.
## Result 2000

Where these numbers come from: paper PMC3520070
